- System: human liver microsomes, metabolic stability half-life
- assayExplanation: NCATS Human Liver Microsomal (HLM) Stability Profiling
- runConditions: higher = more stable; screened at 1 µM (by protocol)

[
  {
    "compound": "COc1cc(C(=O)NCC2(N(C)C)CCCC2)cc(OC)c1OCc1ccccc1",
    "half-life": "38.3 min"
  },
  {
    "compound": "Nc1c(Br)cc(Br)cc1CNC1CCC(O)CC1 (stereo unspecified)",
    "half-life": "110 min"
  },
  {
    "compound": "COc1ccc(S(=O)(=O)Nc2cc(Cl)cc(Cl)c2OC)cc1N1CCNCC1",
    "half-life": "> 120 min"
  },
  {
    "compound": "CC1=NOC2(CCN(Cc3ccc(C#N)cc3)C2)C1 (stereo unspecified)",
    "half-life": "> 120 min"
  },
  {
    "compound": "COc1ccc(C)cc1Nc1c2c(nc3ccccc13)CCC2",
    "half-life": "29.9 min"
  },
  {
    "compound": "CCOc1ccc(NC(=O)CC(C)O)cc1 (stereo unspecified)",
    "half-life": "> 120 min"
  },
  {
    "compound": "C=CC(=O)N1CCN(C(=O)CNc2cc(-c3ccccc3Cl)c(Cl)cc2OC)CC1",
    "half-life": "9.86 min"
  },
  {
    "compound": "O=C1COc2nccc(-c3ccccc3F)c2CN1Cc1cc(C(F)(F)F)cc(C(F)(F)F)c1",
    "half-life": "2.5 min"
  },
  {
    "compound": "CC(C(=O)O)c1ccc2c(c1)[nH]c1ccc(Cl)cc12 (stereo unspecified)",
    "half-life": "> 120 min"
  },
  {
    "compound": "CC(C)(C)c1ccc(C(=O)CCCCl)cc1",
    "half-life": "3.84 min"
  },
  {
    "compound": "CCCC(C)(COC(N)=O)COC(=O)NC(C)C (stereo unspecified)",
    "half-life": "> 120 min"
  },
  {
    "compound": "CCOc1cccc(NC(=O)c2ccc(N3CCCC3)c(C(F)(F)F)c2)c1",
    "half-life": "23 min"
  },
  {
    "compound": "CN1CCN(C2CCC(n3cc(-c4ccc(Oc5ccccc5)cc4)c4c(N)ncnc43)CC2)CC1 (stereo unspecified)",
    "half-life": "58.6 min"
  },
  {
    "compound": "NS(=O)(=O)c1ccc(Cc2c(-c3cccc(-c4ccccc4)c3)nn(-c3nc(C(=O)O)cs3)c2CC2CC2)cc1",
    "half-life": "83.6 min"
  },
  {
    "compound": "CCOC(=O)C(c1c(O)c2ccccc2oc1=O)c1c(O)c2ccccc2oc1=O",
    "half-life": "10.3 min"
  },
  {
    "compound": "CNc1nccc(-c2cccnc2Oc2cc(C(=O)Nc3cccc(C(F)(F)F)c3)ccc2C)n1",
    "half-life": "11.3 min"
  }
]
